Where do the numbers come from? From ChEMBL document CHEMBL1201862.

Test system: MDA-MB-435
Test: NCI tumour cell line growth inhibition, 48 h
The source made the active and inactive calls. Rule as the data show it: active = GI50 up to about 1.1 µM and inactive = higher.
Hello, when you answer, please use one of the following outcomes: active, inactive

Past entries and their recorded results:
Test call, this compound: COc1cc([C@@]23OC[C@@H]4[C@@H](OC[C@@H]42)c2cc4c(cc23)OCO4)cc(OC)c1OC
active

Test call, this compound: C[N+](C)(C)CC1CCc2ccccc2C1=O (centres undefined)
inactive

Test call, this compound: Cc1occc1/C(S)=N\c1ccc(Cl)c(COC(C)(C)C)c1
inactive

Continue with the next compound.
Test call, this compound: CO/C(=N\N=C(/c1ccccc1)C(F)(F)F)c1ccncc1
inactive

----------
Tested on: HOP-62
Experiment: NCI tumour cell line growth inhibition, 48 h
Active and inactive are the calls of the source. Cut-off read from the data, not from the text of the source: active = GI50 up to about 1.1 µM and inactive = higher.
Hello, when you answer, please use one of the following outcomes: active, inactive

Test call, this compound: Cc1ccc(/N=N/c2c(O)ccc3cc(S(=O)(=O)O)ccc23)cc1
inactive

----------
Tested on: MOLT-4
Assay: NCI tumour cell line growth inhibition, 48 h
The source made the active and inactive calls. No stated cut-off is given here; in the data, active = GI50 up to about 1.1 µM and inactive = higher.
Hello, when you answer, please use one of the following outcomes: active, inactive

Test call, this molecule: O=C1C(=O)N(c2cc(Cl)ccc2Cl)C(=O)C(=O)C1c1nc2ccccc2o1
inactive

Test call, this molecule: C=C(C)C(O)C(O)C[C@@H](C)C1CC[C@]23C[C@]12CCC1[C@@]2(C)CCC(OC(C)=O)C(C)(C)C2CC(OC2OC(CO)C(O)C(O)C2O)[C@]13C (stereo partly drawn)
inactive

Test call, this molecule: Nc1ncnc2c1ncn2C1OC(CO)CC1O (stereo not drawn)
inactive

Test call, this molecule: CCCCCCCCCCCCCCCC(=O)OCC1OC(OC)C2NP(=O)(N(CCCl)CCCl)OC1C2O (stereo not drawn)
active

----------
Measured GI50 of individual entries
Test system: M14
Test: NCI tumour cell line growth inhibition, 48 h
Active and inactive are the calls of the source. Rule as the data show it: active = GI50 up to about 1.1 µM and inactive = higher.

Check out these entries, answers already filled in.
The molecule listed as O=c1ccn(C2(CO)C=C(CO)C(O)C2O)c(=O)[nH]1 (stereo not drawn) shows GI50 equal to > 25.7 µM (inactive)

The molecule listed as NCCCC[C@H](N)C(=O)Nc1ccc(-c2nc3ccccc3s2)cc1Cl shows GI50 equal to 3.55 µM (inactive)

The molecule listed as NC(CCc1ncc(C(=O)O)s1)C(=O)O (stereo not drawn) shows GI50 equal to > 100 µM (inactive)

The molecule listed as O=C1c2ccccc2-c2nc(-c3ccccc3)cc3c2c1nc1ccccc13 shows GI50 equal to 5.55 µM (inactive)

The molecule listed as O=C(/C=C/c1ccc(O)cc1)OC[C@@H](O)COC1OC(CO)C(O)C(O)C1O (stereo partly drawn) shows GI50 equal to > 100 µM (inactive)

Further cases:
The molecule listed as C=CCNC(=O)NNC(O)(C(=O)OCC)C(F)(F)F (stereo not drawn) shows GI50 equal to > 100 µM (inactive)

The molecule listed as O=c1c2c(F)c(F)c(F)c(F)c2sc2nccn12 shows GI50 equal to 17.6 µM (inactive)

The molecule listed as Cn1cc(NC(=O)Nc2cc(C(=O)Nc3cc(C(=O)Nc4ccc5cc(S(=O)(=O)O)cc(S(=O)(=O)O)c5c4)n(C)c3)n(C)c2)cc1C(=O)Nc1cc(C(=O)Nc2ccc3cc(S(=O)(=O)O)cc(S(=O)(=O)O)c3c2)n(C)c1 shows GI50 equal to 91.4 µM (inactive)
